Recorded measurements of AC50, one per entry
# Assayed target: human PAH with the R408W mutation (A375 R408W cells) (Homo sapiens, UniProt P00439, R408W)
# Construct: expressed in transfected cells
# Assay procedure: Cell Based Phenylalanine Flux Assay
# Measurement parameters: A375 R408W cells; 24 hrs with compound, then 20 μM sepiapterin and 800 μM 13C9,15N-Phenylalanine for 4 hours; 13C-Tyrosine by LC-MS; average where tested multiple times

Consider the reported AC50 for these molecules:
[[record]]
molecule = "O=C(c1oc(-c2ccccn2)nc1C(F)(F)F)N1CCc2[nH]cnc2[C@@H]1c1nc2cc(F)ccc2o1 [Example 50]"
measurement_kind = "AC50"
result = "≤ 500 nM"

[[record]]
molecule = "CC(C)(C)c1nnc(C(=O)N2CCc3[nH]cnc3[C@@H]2c2nc3c(F)ccc(F)c3o2)o1 [Example 851]"
measurement_kind = "AC50"
result = "500 to 1000 nM"

[[record]]
molecule = "CC(C)(O)C1CCN(c2ccc3c(C(=O)N4CCc5[nH]cnc5[C@H]4c4nc5c(F)cccc5o4)cnn3c2)CC1 [Example 507]"
measurement_kind = "AC50"
result = "500 to 1000 nM"

[[record]]
molecule = "COc1ccc(-c2nnc(C(=O)N3CCc4[nH]cnc4[C@H]3c3nc4cc(C)ccc4o3)o2)nc1 [Example 677]"
measurement_kind = "AC50"
result = "≤ 500 nM"

[[record]]
molecule = "CC(C)(O)c1nc(C(F)(F)F)c(C(=O)N2CCc3[nH]cnc3[C@H]2c2nc3ccc(F)cc3o2)o1 [Example 255]"
measurement_kind = "AC50"
result = "≤ 500 nM"


// query // lookup AC50 for O=C(c1ccnn1-c1ccccn1)N1CCc2[nH]cnc2[C@H]1c1nc2cccc(F)c2o1 [Example 729]
// result 500 to 1000 nM

// query Continue with Cn1cc(C(=O)N2CCc3[nH]cnc3[C@H]2c2nc3cc(F)ccc3o2)c(C(F)F)n1 [Example 95]
// result 500 to 1000 nM

###

# Assayed target: human PAH with the R408W mutation (A375 R408W cells) (Homo sapiens, UniProt P00439, R408W)
# Construct: expressed in transfected cells
# Assay procedure: Cell Based Phenylalanine Flux Assay
# Measurement parameters: A375 cells expressing R408W PAH; 24 hrs with compound, then 20 μM sepiapterin and 800 μM 13C9,15N-Phenylalanine for 4 hours; 13C-Tyrosine by LC-MS; average where tested multiple times
Quick list: AC50 per entry.

Example entries begin here.
[[record]]
molecule = "CC(C)(O)c1nc(C(=O)N2CCc3[nH]cnc3C2c2nc3c(F)cccc3o2)no1 (centres unmarked)"
assayed_target = "human PAH with the R408W mutation (A375 R408W cells) (Homo sapiens, UniProt P00439, R408W)"
measurement_kind = "AC50"
result = "≥ 5 µM"

[[record]]
molecule = "O=C(c1cnn2cc(CN3CCOCC3)ccc12)N1CCc2[nH]cnc2C1c1nc2cc(F)ccc2o1 (centres unmarked)"
assayed_target = "human PAH with the R408W mutation (A375 R408W cells) (Homo sapiens, UniProt P00439, R408W)"
measurement_kind = "AC50"
result = "1 to 5 µM"

[[record]]
molecule = "Cc1ccc2nc(C3c4nc[nH]c4CCN3C(=O)c3cnco3)oc2c1 (centres unmarked)"
assayed_target = "human PAH with the R408W mutation (A375 R408W cells) (Homo sapiens, UniProt P00439, R408W)"
measurement_kind = "AC50"
result = "≥ 5 µM"


// query Notebook: pull reported AC50 for human PAH with the R408W mutation (A375 R408W cells) (Homo sapiens, UniProt P00439, R408W), entry O=C(c1cnn2cc(Cl)ccc12)N1CCc2[nH]cnc2C1c1nc2cc(F)ccc2o1 (centres unmarked)
// result 1 to 5 µM

// query Here is the next molecule: O=C(c1nnc(-c2ncccn2)o1)N1CCc2[nH]cnc2C1c1nc2cc(F)ccc2o1 (centres unmarked)
// result 1 to 5 µM

###

# Assayed target: human PAH with the R408W mutation (A375 R408W cells) (Homo sapiens, UniProt P00439, R408W)
# Construct: expressed in transfected cells
# Sequence (P00439 1-452 R408W): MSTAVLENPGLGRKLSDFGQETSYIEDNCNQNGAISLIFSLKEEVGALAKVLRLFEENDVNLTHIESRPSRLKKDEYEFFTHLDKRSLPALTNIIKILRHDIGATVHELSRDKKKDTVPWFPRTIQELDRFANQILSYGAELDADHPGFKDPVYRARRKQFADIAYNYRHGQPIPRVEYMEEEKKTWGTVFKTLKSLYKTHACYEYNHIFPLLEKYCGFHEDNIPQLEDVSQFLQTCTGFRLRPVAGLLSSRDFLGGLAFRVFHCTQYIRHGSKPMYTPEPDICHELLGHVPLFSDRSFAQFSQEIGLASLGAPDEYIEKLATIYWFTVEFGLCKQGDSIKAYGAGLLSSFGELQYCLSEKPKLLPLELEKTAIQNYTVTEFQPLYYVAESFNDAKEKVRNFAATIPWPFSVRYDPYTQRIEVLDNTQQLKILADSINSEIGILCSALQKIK
# Assay procedure: Cell Based Phenylalanine Flux Assay
# Measurement parameters: A375 R408W cells; 24 hrs with compound, then 20 μM sepiapterin and 800 μM 13C9,15N-Phenylalanine for 4 hours; 13C-Tyrosine by LC-MS; average where tested multiple times
Measurement kind: AC50

Example cases with answers are listed next.
[[record]]
compound_string = "O=C(CC1CC1)N1CCc2[nH]cnc2[C@@H]1c1nc2cc(F)ccc2o1"
assayed_target = "human PAH with the R408W mutation (A375 R408W cells) (Homo sapiens, UniProt P00439, R408W)"
result = "1000 to 5000 nM"

[[record]]
compound_string = "Cn1cc(-c2ncc(C(=O)N3CCc4[nH]cnc4[C@@H]3c3nc4cc(F)ccc4o3)s2)cn1"
assayed_target = "human PAH with the R408W mutation (A375 R408W cells) (Homo sapiens, UniProt P00439, R408W)"
result = "1000 to 5000 nM"

[[record]]
compound_string = "CC(C)(O)c1nc(C(F)F)c(C(=O)N2CCc3[nH]cnc3[C@H]2c2nc3cc(Cl)ccc3o2)o1"
assayed_target = "human PAH with the R408W mutation (A375 R408W cells) (Homo sapiens, UniProt P00439, R408W)"
result = "500 to 1000 nM"


Could you now consider this next compound?
// query What value of AC50 has been recorded for this entry: Cn1nc(Br)nc1C(=O)N1CCc2[nH]cnc2[C@@H]1c1nc2c(F)cccc2o1
// result 1000 to 5000 nM

###

# Assayed target: human PAH with the R408W mutation (A375 R408W cells) (Homo sapiens, UniProt P00439, R408W)
# Construct: expressed in transfected cells
# Sequence (P00439 1-452 R408W): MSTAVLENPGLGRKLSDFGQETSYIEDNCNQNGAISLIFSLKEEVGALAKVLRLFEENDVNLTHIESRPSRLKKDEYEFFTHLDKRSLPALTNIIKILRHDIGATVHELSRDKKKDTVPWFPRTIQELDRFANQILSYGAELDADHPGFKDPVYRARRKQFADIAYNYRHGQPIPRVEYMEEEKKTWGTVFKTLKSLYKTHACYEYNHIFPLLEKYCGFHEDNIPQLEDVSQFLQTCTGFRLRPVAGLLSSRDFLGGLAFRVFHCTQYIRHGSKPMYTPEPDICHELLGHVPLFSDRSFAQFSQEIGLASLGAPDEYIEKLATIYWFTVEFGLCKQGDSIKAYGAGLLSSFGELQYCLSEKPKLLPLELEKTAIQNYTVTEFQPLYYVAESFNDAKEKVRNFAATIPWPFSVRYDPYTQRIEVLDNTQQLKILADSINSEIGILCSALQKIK
# Assay procedure: Cell Based Phenylalanine Flux Assay
# Measurement parameters: A375 R408W cells; 24 hrs with compound, then 20 μM sepiapterin and 800 μM 13C9,15N-Phenylalanine for 4 hours; 13C-Tyrosine by LC-MS; average where tested multiple times
# Lookup of reported AC50 keyed by entry

[[record]]
molecule = "O=C(c1nnc(C2CC2)o1)N1CCc2[nH]cnc2[C@H]1c1nc2c(F)ccc(F)c2o1 [Example 855]"
measurement_kind = "AC50"
result = "≤ 0.5 µM"


Next molecule, AC50 to be filled in.
// query Consider the molecule shown here: O=C(CCc1nccs1)N1CCc2[nH]cnc2[C@H]1c1nc2cccc(F)c2o1 [Example 385] What is its recorded AC50?
// result ≤ 0.5 µM

###

# Assayed target: human PAH with the R408W mutation (A375 R408W cells) (Homo sapiens, UniProt P00439, R408W)
# Construct: expressed in transfected cells
# Assay procedure: Cell Based Phenylalanine Flux Assay
# Measurement parameters: A375 R408W cells; 24 hrs with compound, then 20 μM sepiapterin and 800 μM 13C9,15N-Phenylalanine for 4 hours; 13C-Tyrosine by LC-MS; average where tested multiple times
In this section, each of the molecules is paired with its reported AC50.

[[record]]
molecule = "O=C(c1cnn(-c2ccccn2)c1)N1CCc2[nH]cnc2[C@H]1c1nc2cc(F)ccc2o1 [Example 879]"
result = "1000 to 5000 nM"

[[record]]
molecule = "Cn1cc(-c2nc(C(F)F)c(C(=O)N3CCc4[nH]cnc4[C@H]3c3nc4ccccc4o3)o2)cn1 [Example 760]"
result = "≤ 500 nM"

[[record]]
molecule = "Cn1cnc(-c2nc(C(F)F)c(C(=O)N3CCc4[nH]cnc4[C@@H]3c3nc4ccccc4o3)o2)c1 [Example 785]"
result = "≥ 5000 nM"

[[record]]
molecule = "Cn1nc(Cl)nc1C(=O)N1CCc2[nH]cnc2[C@H]1c1nc2ccc(F)cc2o1 [Example 343]"
result = "1000 to 5000 nM"


// query Requested read-out: AC50. Entry: O=C(c1ocnc1C(F)(F)F)N1CCc2[nH]cnc2[C@H]1c1nc2cc(F)ccc2o1 [Example 23]
// result ≤ 500 nM

// query Lookup CC(C)(O)c1nc(C(F)F)c(C(=O)N2CCc3[nH]cnc3[C@H]2c2nc3cc(OC(F)(F)F)ccc3o2)o1 [Example 351]
// result ≤ 500 nM

// query Another: O=C(CC1CC(F)C1)N1CCc2[nH]cnc2[C@H]1c1nc2cc(F)ccc2o1 (stereo partly drawn) [Example 59]
// result 500 to 1000 nM

// query Same question, Cn1cc(-c2nnc(C(=O)N3CCc4[nH]cnc4[C@H]3c3nc4c(F)c(F)ccc4o3)o2)cn1 [Example 645] this time
// result 1000 to 5000 nM

// query Same question, CN(C)c1ccc2c(C(=O)N3CCc4[nH]cnc4[C@H]3c3nc4cc(F)ccc4o3)cnn2c1 [Example 91] this time
// result 500 to 1000 nM

// query Cn1cc(-c2nnc(C(=O)N3CCc4[nH]cnc4[C@H]3c3nc4ccc(F)c(F)c4o3)o2)cn1 [Example 515] ?
// result 500 to 1000 nM
